B1: TPR 5TU (parent)
chain: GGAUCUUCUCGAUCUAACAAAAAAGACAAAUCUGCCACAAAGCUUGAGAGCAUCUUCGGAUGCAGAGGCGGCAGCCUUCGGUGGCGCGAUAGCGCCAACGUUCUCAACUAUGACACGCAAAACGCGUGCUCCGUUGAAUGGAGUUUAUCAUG

variants of: B1; test: polymerase ribozyme fitness, log enrichment relative to wild type (log ratio); higher = more active; in vitro selection for triplet polymerase activity
Variants at the floor of the assay were thinned out.
# polymerase ribozyme fitness (log ratio) per record follows
API doc: respond with a numeric literal and nothing else, no unit.

See these solved cases before continuing.
MUTATION LABEL | polymerase ribozyme fitness (log ratio)
A22U G92A C95A C105U | -3.63
U109G C116A | -2.26
C57G G84U U109G G136U | -3.84

Need polymerase ribozyme fitness (log ratio) of U6A U55A , thanks.
-1.4

Need polymerase ribozyme fitness (log ratio) of C85G G86A , thanks.
-3.83

// provenance: the RNAGym collection of RNA variant scans (doi:10.1073/pnas.2313332121)
